molecular target: human GPR40 receptor (Homo sapiens, UniProt O14842); experiment: Assay I: IP1 accumulation (IPOne HTRF) in 1321N1 cells stably expressing human GPR40; format: cell-based; details: 1321N1 cells expressing human GPR40, stimulation 1 hour at 37° C., 10% CO2, final LiCl 50 mM
Sequence (O14842 whole entry): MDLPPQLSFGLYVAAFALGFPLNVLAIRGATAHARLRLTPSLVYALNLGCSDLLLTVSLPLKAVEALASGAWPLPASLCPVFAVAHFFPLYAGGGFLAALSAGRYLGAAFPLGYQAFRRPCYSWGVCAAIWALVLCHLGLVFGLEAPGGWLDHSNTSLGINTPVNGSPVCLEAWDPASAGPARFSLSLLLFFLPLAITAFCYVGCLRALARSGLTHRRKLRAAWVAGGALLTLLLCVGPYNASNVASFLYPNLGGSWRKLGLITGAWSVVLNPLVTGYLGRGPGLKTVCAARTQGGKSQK
property_measured: EC50 (µM)
Numbers only here, please. The scale is µM.

Fill in: EC50 of Cc1cc(C(N)=O)cc(C)c1-c1ccc(F)c2c1CC[C@H]2Oc1ccc2c(c1)OC[C@H]2CC(=O)O is ___ 0.026

Need EC50, item Cc1cc(OCC2CN(S(C)(=O)=O)C2)cc(C)c1-c1ccc(F)c2c1CC[C@H]2Oc1ccc2c(c1)OC[C@H]2CC(=O)O 0.011

Need EC50, item Cc1cc(OC2CN(S(C)(=O)=O)C2)cc(C)c1-c1ccc(F)c2c1CC[C@H]2Oc1ccc2c(c1)OC[C@H]2CC(=O)O 0.017

Param item = Cc1cc(OC2CCC(O)C2)cc(C)c1-c1ccc(F)c2c1CC[C@H]2Oc1ccc2c(c1)OC[C@H]2CC(=O)O (stereo partly shown) ; retrieve measured EC50. 0.005

I'd like to know its EC50. The compound in question is Cc1cc(OCC2(C)CN(S(C)(=O)=O)C2)cc(C)c1-c1ccc(F)c2c1CC[C@H]2Oc1ccc2c(c1)OC[C@H]2CC(=O)O 0.008

Which EC50 value is on record for Cc1cc(-c2ccnn2C)cc(C)c1-c1ccc(F)c2c1CC[C@H]2Oc1ccc2c(c1)OC[C@H]2CC(=O)O ? 0.009

Return reported EC50; argument: Cc1cc(OCC2CCN(S(C)(=O)=O)CC2)cc(C)c1-c1ccc(F)c2c1CC[C@H]2Oc1ccc2c(c1)OC[C@H]2CC(=O)O 0.057

Please report the recorded EC50 for Cc1cc(OCC2CCOC2)cc(C)c1-c1ccc(F)c2c1CC[C@H]2Oc1ccc2c(c1)OC[C@H]2CC(=O)O (stereo partly shown) . 0.005

Form field: reported EC50 of CNC(=O)c1cc(C)c(-c2ccc(F)c3c2CC[C@H]3Oc2ccc3c(c2)OC[C@H]3CC(=O)O)c(C)c1 0.011

Recorded EC50 for COCC(C)(C)COc1cc(C)c(-c2ccc(F)c3c2CC[C@H]3Oc2ccc3c(c2)OC[C@H]3CC(=O)O)c(C)c1 , please? 0.005

Consider the compound Cc1cc(-c2ncco2)cc(C)c1-c1ccc(F)c2c1CC[C@H]2Oc1ccc2c(c1)OC[C@H]2CC(=O)O and give its measured EC50. 0.004

GET /values?readout=EC50&item= Cc1cc(OC2CCS(=O)(=O)CC2)cc(C)c1-c1ccc(F)c2c1CC[C@H]2Oc1ccc2c(c1)OC[C@H]2CC(=O)O 0.026

Name the reported EC50 value associated with the compound Cc1c(OC2CCS(=O)(=O)CC2)cccc1-c1ccc(F)c2c1CC[C@H]2Oc1ccc2c(c1)OC[C@H]2CC(=O)O 0.076

EC50 lookup needed for Cc1cc(OCCC(C)(C)O)cc(C)c1-c1ccc(F)c2c1CC[C@H]2Oc1ccc2c(c1)OC[C@H]2CC(=O)O , thanks. 0.005

Tell me the measured EC50 of Cc1cc(OCCCS(C)(=O)=O)cc(C)c1-c1ccc(F)c2c1CC[C@H]2Oc1ccc2c(c1)OC[C@H]2CC(=O)O , please. 0.026

Quick one: EC50 for Cc1cc(C(=O)N(C)C)cc(C)c1-c1ccc(F)c2c1CC[C@H]2Oc1ccc2c(c1)OC[C@H]2CC(=O)O ? 0.051

###

molecular target: human GPR40 receptor (Homo sapiens, UniProt O14842); experiment: Assay II: IP1 accumulation (IPOne HTRF) in 1321N1 cells stably expressing human GPR40; format: cell-based; conditions: 1321N1 cells expressing human GPR40, stimulation 1 h at 37° C., 5% CO2, LiCl 50 mM
property_measured: pEC50
Conceptually, pEC50 converts a concentration in mol/L into minus its log10.

Requested read-out: pEC50. Entry: Cc1cc(OC2CCS(=O)(=O)N(C)C2)cc(C)c1-c1ccc(F)c2c1CC[C@H]2Oc1ccc2c(c1)OC[C@H]2CC(=O)O (stereo partly drawn) [Example 42] 7.96

Sample Cc1cc(C2CCOCC2)cc(C)c1-c1ccc(F)c2c1CC[C@H]2Oc1ccc2c(c1)OC[C@H]2CC(=O)O [Example 80] — what was its pEC50? 7.96

Returns the measured pEC50 for the input compound. Input: Cc1cc(-c2nccs2)cc(C)c1-c1ccc(F)c2c1CC[C@H]2Oc1ccc2c(c1)OC[C@H]2CC(=O)O [Example 132] 8.70

pEC50 lookup needed for Cc1cc(-c2ccn(C)c(=O)n2)cc(C)c1-c1ccc(F)c2c1CC[C@H]2Oc1ccc2c(c1)OC[C@H]2CC(=O)O [Example 97] , thanks. 8.30

I would be grateful if you could share the reported pEC50 for Cc1cc(OC[C@@H](C)CS(C)(=O)=O)cc(C)c1-c1ccc(F)c2c1CC[C@H]2Oc1ccc2c(c1)OC[C@H]2CC(=O)O [Example 36] . 8.10

Can you share its pEC50? I mean this compound: Cc1cc(-c2ccccn2)cc(C)c1-c1ccc(F)c2c1CC[C@H]2Oc1ccc2c(c1)OC[C@H]2CC(=O)O [Example 137] 8.70

###

Please respond with reported pEC50 for every item in the list.
target: human GPR40 receptor (Homo sapiens); test: Assay I: IP1 accumulation (IPOne HTRF) in 1321N1 cells stably expressing human GPR40; assay type: cell-based; details: 1321N1 cells expressing human GPR40, stimulation 1 hour at 37° C., 10% CO2, final LiCl 50 mM
Keep it numeric: pEC50 is minus log10 of the concentration in mol/L.

Form entry - test system: human GPR40 receptor (Homo sapiens); read-out: pEC50; compound: CCS(=O)(=O)N1CC(COc2cc(C)c(-c3ccc(F)c4c3CC[C@H]4Oc3ccc4c(c3)OC[C@H]4CC(=O)O)c(C)c2)C1 8.15

// fetch human GPR40 receptor (Homo sapiens) pEC50 for Cc1cc(O[C@H]2CCN(S(C)(=O)=O)C2)cc(C)c1-c1ccc(F)c2c1CC[C@H]2Oc1ccc2c(c1)OC[C@H]2CC(=O)O 7.96

Reported pEC50 for human GPR40 receptor (Homo sapiens), given Cc1cc(C2=CCN(S(C)(=O)=O)CC2)cc(C)c1-c1ccc(F)c2c1CC[C@H]2Oc1ccc2c(c1)OC[C@H]2CC(=O)O ? 7.46

# query: pEC50 | item COc1cc(COc2cc(C)c(-c3ccc(F)c4c3CC[C@H]4Oc3ccc4c(c3)OC[C@H]4CC(=O)O)c(C)c2)ccn1 | system: human GPR40 receptor (Homo sapiens) 8.70

What measured pEC50 is associated with Cc1cc(OCC(=O)N(C)C)cc(C)c1-c1ccc(F)c2c1CC[C@H]2Oc1ccc2c(c1)OC[C@H]2CC(=O)O on human GPR40 receptor (Homo sapiens)? 7.20

Any idea what pEC50 came out for Cc1cc(-c2cnn(C)c2)cc(C)c1-c1ccc(F)c2c1CC[C@H]2Oc1ccc2c(c1)OC[C@H]2CC(=O)O on human GPR40 receptor (Homo sapiens)? 8.52

# get_value(readout= pEC50, system= human GPR40 receptor (Homo sapiens)) for Cc1cc(-c2cncnc2)cc(C)c1-c1ccc(F)c2c1CC[C@H]2Oc1ccc2c(c1)OC[C@H]2CC(=O)O 8.40

Form entry - test system: human GPR40 receptor (Homo sapiens); read-out: pEC50; compound: Cc1cc(O[C@@H]2CCOC2)cc(C)c1-c1ccc(F)c2c1CC[C@H]2Oc1ccc2c(c1)OC[C@H]2CC(=O)O 8.05

Any idea what pEC50 came out for Cc1c(OCCCS(C)(=O)=O)cccc1-c1ccc(F)c2c1CC[C@H]2Oc1ccc2c(c1)OC[C@H]2CC(=O)O on human GPR40 receptor (Homo sapiens)? 7.24

###

Provide the reported pEC50 of each item.
molecular target: human GPR40 receptor (Homo sapiens); experiment: Assay II: IP1 accumulation (IPOne HTRF) in 1321N1 cells stably expressing human GPR40; type: cell-based; conditions: 1321N1 cells expressing human GPR40, stimulation 1 h at 37° C., 5% CO2, LiCl 50 mM
// pEC50 here means minus log10 of the molar concentration (mol/L)

Entry Cc1cc(OC[C@H](C)CS(C)(=O)=O)cc(C)c1-c1ccc(F)c2c1CC[C@H]2Oc1ccc2c(c1)OC[C@H]2CC(=O)O : reported pEC50 = ? 8.22

Entry COc1ccc(-c2cc(C)c(-c3ccc(F)c4c3CC[C@H]4Oc3ccc4c(c3)OC[C@H]4CC(=O)O)c(C)c2)cn1 has what pEC50? 8.22

Which measured pEC50 value corresponds to Cc1cc(OCC2CCOCC2)cc(C)c1-c1ccc(F)c2c1CC[C@H]2Oc1ccc2c(c1)OC[C@H]2CC(=O)O ? 8.22

Consider the molecule shown here: Cc1cc(OCC2(O)CC2)cc(C)c1-c1ccc(F)c2c1CC[C@H]2Oc1ccc2c(c1)OC[C@H]2CC(=O)O What is its recorded pEC50? 7.77

# input molecule: Cc1cc(OCC(C)(C)S(C)(=O)=O)cc(C)c1-c1ccc(F)c2c1CC[C@H]2Oc1ccc2c(c1)OC[C@H]2CC(=O)O ; wanted: its pEC50 8.05
